Values compiled from ChEMBL document CHEMBL1130123.

Target: Cholecystokinin receptor type A (Homo sapiens)
Sequence (P32238 whole entry): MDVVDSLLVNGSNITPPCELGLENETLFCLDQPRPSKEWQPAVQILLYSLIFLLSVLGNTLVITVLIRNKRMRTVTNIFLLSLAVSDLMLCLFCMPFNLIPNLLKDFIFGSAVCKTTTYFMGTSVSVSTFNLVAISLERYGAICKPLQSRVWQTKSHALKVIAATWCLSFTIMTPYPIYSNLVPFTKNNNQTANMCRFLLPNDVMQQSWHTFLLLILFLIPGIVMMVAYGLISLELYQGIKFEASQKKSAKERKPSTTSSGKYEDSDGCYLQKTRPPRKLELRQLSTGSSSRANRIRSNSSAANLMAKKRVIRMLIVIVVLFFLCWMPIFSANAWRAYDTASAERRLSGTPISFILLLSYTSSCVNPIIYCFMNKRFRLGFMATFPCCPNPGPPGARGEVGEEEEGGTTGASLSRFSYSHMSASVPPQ
Overview of recorded pIC50 for various compounds
# log scale: pIC50 equals minus log10 of the concentration in mol/L

CC(C)(C)N(C(=O)CN1C(=O)C(Cc2n[nH]c3ccccc23)C(=O)N(c2ccccc2)c2ccccc21)c1ccccc1 (configuration not stated) : 6.05
COc1ccc(N(C(=O)CN2C(=O)C(Cc3n[nH]c4cc(F)ccc34)C(=O)N(c3ccccc3)c3ccccc32)C(C)C)cc1 (configuration not stated) : 7.53
COc1ccc(N(C(=O)CN2C(=O)C(Cc3[nH]nc4c3CCCC4)C(=O)N(c3ccccc3)c3ccccc32)C(C)C)cc1 (configuration not stated) : 6.89

Q: Given the entry COc1ccc(N(C(=O)CN2C(=O)C(Cc3n[nH]c4ccc(F)cc34)C(=O)N(c3ccccc3)c3ccccc32)C(C)C)cc1 (configuration not stated) , what pIC50 was observed with Cholecystokinin receptor type A (Homo sapiens)?
Result: 7.37

Q: Provide the documented pIC50 with Cholecystokinin receptor type A (Homo sapiens) as the system for COc1ccc(N(C(=O)CN2C(=O)C(C)(Cc3cn(C)c4ccccc34)C(=O)N(c3ccccc3)c3ccccc32)C(C)C)cc1 (configuration not stated)
Result: 7.75

Q: What pIC50 appears in the records for this compound with Cholecystokinin receptor type A (Homo sapiens)? COc1ccc(N(C(=O)CN2C(=O)C(Cc3c[nH]c4ccccc34)(OC)C(=O)N(c3ccccc3)c3ccccc32)C(C)C)cc1 (configuration not stated)
Result: 7.86

Q: Given the entry O=C1C(Cc2n[nH]c3ccccc23)C(=O)N(c2ccccc2)c2ccccc2N1CC(=O)N(c1ccccc1)C1CC1 (configuration not stated) , what pIC50 was observed with Cholecystokinin receptor type A (Homo sapiens)?
Result: 6.28

Q: Cholecystokinin receptor type A (Homo sapiens) / pIC50 / COc1ccc(N(C(=O)CN2C(=O)C(Cc3n[nH]c4ccccc34)(OC)C(=O)N(c3ccccc3)c3ccccc32)C(C)C)cc1 (configuration not stated) : value?
Result: 7.84

Q: API: value(readout=pIC50, system=Cholecystokinin receptor type A (Homo sapiens)) for record CC(C)N(C(=O)CN1C(=O)C(Cc2n[nH]c3ccccc23)C(=O)N(c2ccccc2)c2ccccc21)c1ccc(C(F)(F)F)cc1 (configuration not stated)
Result: 6.18

Q: Request: pIC50, test system Cholecystokinin receptor type A (Homo sapiens), entry CC(C)N(C(=O)CN1C(=O)C(Cc2n[nH]c3ccccc23)C(=O)N(c2ccccc2)c2ccccc21)c1ccc(F)cc1 (configuration not stated)
Result: 6.86

Q: Please tell me: pIC50 of COc1cccc(N(C(=O)CN2C(=O)C(Cc3n[nH]c4ccccc34)C(=O)N(c3ccccc3)c3ccccc32)C(C)C)c1 (configuration not stated) , system Cholecystokinin receptor type A (Homo sapiens)?
Result: 6.32

Q: API: value(readout=pIC50, system=Cholecystokinin receptor type A (Homo sapiens)) for record COc1ccc(N(C(=O)CN2C(=O)C(Cc3n[nH]c4cccc(F)c34)C(=O)N(c3ccccc3)c3ccccc32)C(C)C)cc1 (configuration not stated)
Result: 7.76

Q: Hello, I am looking for reported pIC50 with Cholecystokinin receptor type A (Homo sapiens) for COc1ccc(N(C(=O)CN2C(=O)C(Cc3n[nH]c4ccccc34)C(=O)N(c3ccccc3)c3ccccc32)C2CCCC2)cc1 (configuration not stated) . Could you help?
Result: 7.77

Q: Request body: readout pIC50, system Cholecystokinin receptor type A (Homo sapiens), query COc1ccc(N(C(=O)CN2C(=O)C(Cc3noc4ccccc34)C(=O)N(c3ccccc3)c3ccccc32)C(C)C)cc1 (configuration not stated) . Return the value.
Result: 7.05

Q: # returns recorded pIC50 (system: Cholecystokinin receptor type A (Homo sapiens)) for CC(C)N(C(=O)CN1C(=O)C(Cc2n[nH]c3ccccc23)C(=O)N(c2ccccc2)c2ccccc21)c1ccc2c(c1)OCO2 (configuration not stated)
Result: 6.45

Q: Query for Cholecystokinin receptor type A (Homo sapiens): what pIC50 does the record show for COc1ccc(N(C(=O)CN2C(=O)C(C)(Cc3nn(C)c4ccccc34)C(=O)N(c3ccccc3)c3ccccc32)C(C)C)cc1 (configuration not stated) ?
Result: 7.41

Q: Any idea what pIC50 came out for COc1ccc(N(C(=O)CN2C(=O)C(Cc3n[nH]c4ncccc34)C(=O)N(c3ccccc3)c3ccccc32)C(C)C)cc1 (configuration not stated) on Cholecystokinin receptor type A (Homo sapiens)?
Result: 6.95

----------
Assay: Oral bioavailability in Long-Evans rats at an peroral dose of 6.3 mg/kg
Format: ADME, organism-based
Conditions: rat, in vivo
MEASUREMENT_KIND: bioavailability

Q: Requested read-out: bioavailability. Entry: COc1ccc(N(C(=O)CN2C(=O)C(Cc3n[nH]c4ccccc34)(OC)C(=O)N(c3ccccc3)c3ccccc32)C(C)C)cc1 (stereo unspecified)
Result: 5%

----------
Assay: Maximum concentration at an intravenous dose of 5.5 mg/kg in rat
Assay type: ADME, organism-based
Design: dose 5.5 mg/kg, route intravenous
Conditions: in vivo
MEASUREMENT_KIND: Cmax (ng/mL)
Respond numerically; units are ng/mL and should not be typed.

Q: Give its Cmax value. Item: COc1ccc(N(C(=O)CN2C(=O)C(Cc3n[nH]c4ccccc34)(OC)C(=O)N(c3ccccc3)c3ccccc32)C(C)C)cc1 (stereo unspecified)
Result: 4900

----------
Experiment: Oral bioavailability in Long-Evans rats at an intraduodenal dose of 5.2 mg/kg
Format: ADME, organism-based
Conditions: rat, in vivo, other: intraduodenal
MEASUREMENT_KIND: bioavailability (%)
Expressed in %, but write only the number.

Q: May I ask what bioavailability has been recorded for COc1ccc(N(C(=O)CN2C(=O)C(C)(Cc3n[nH]c4ccccc34)C(=O)N(c3ccccc3)c3ccccc32)C(C)C)cc1 (stereo unspecified) ?
Result: 15

----------
Assay: Total body clearance at an intravenous dose of 6.5 mg/kg in rat
Type: ADME, organism-based
Parameters: dose 6.5 mg/kg, route intravenous
Conditions: in vivo
MEASUREMENT_KIND: clearance (mL/min/kg)
Field format: number, assumed mL/min/kg, no unit text.

Q: Recorded clearance for COc1ccc(N(C(=O)CN2C(=O)C(C)(Cc3nn(C)c4ccccc34)C(=O)N(c3ccccc3)c3ccccc32)C(C)C)cc1 (stereo unspecified) , please?
Result: 31

----------
Quick list: pEC50 per entry.
Organism: Cavia porcellus
Test: In vitro functional agonist activity in the isolated guinea pig gall bladder, concentration at which 50% of the maximal contraction observed was reported.
Conditions: read-out: ED50 (the source's name)
Quick note: pEC50 means taking -log10 of the concentration in moles per liter.

COc1ccc(N(C(=O)CN2C(=O)C(Cc3n[nH]c4ccc(F)cc34)C(=O)N(c3ccccc3)c3ccccc32)C(C)C)cc1 (stereo not drawn) : 7.40
COc1ccc(N(C(=O)CN2C(=O)C(Cc3n[nH]c4ncccc34)C(=O)N(c3ccccc3)c3ccccc32)C(C)C)cc1 (stereo not drawn) : 7.40

Q: What does the data say about its pEC50? Entry: COc1ccc(N(C(=O)CN2C(=O)C(Cc3c[nH]c4ccccc34)(OC)C(=O)N(c3ccccc3)c3ccccc32)C(C)C)cc1 (stereo not drawn)
Result: 6.82

Q: Name the reported pEC50 value associated with the molecule COc1cccc(N(C(=O)CN2C(=O)C(Cc3n[nH]c4ccccc34)C(=O)N(c3ccccc3)c3ccccc32)C(C)C)c1 (stereo not drawn)
Result: 7.15

Q: Any idea what its pEC50 is? The molecule is COc1ccc(N(C(=O)CN2C(=O)C(Cc3n[nH]c4c(F)cccc34)C(=O)N(c3ccccc3)c3ccccc32)C(C)C)cc1 (stereo not drawn)
Result: 7.70

Q: What does the record list as pEC50 for CC(C)(C)N(C(=O)CN1C(=O)C(Cc2n[nH]c3ccccc23)C(=O)N(c2ccccc2)c2ccccc21)c1ccccc1 (stereo not drawn) ?
Result: 6.96

Q: Value lookup for pEC50; key = CC(C)N(C(=O)CN1C(=O)C(Cc2n[nH]c3ccccc23)C(=O)N(c2ccccc2)c2ccccc21)c1ccc(C(F)(F)F)cc1 (stereo not drawn)
Result: 6.64

Q: Give the measured pEC50 of COc1ccc(N(C(=O)CN2C(=O)C(Cc3noc4ccccc34)C(=O)N(c3ccccc3)c3ccccc32)C(C)C)cc1 (stereo not drawn) .
Result: 6.89

----------
Biological target: Gastrin/cholecystokinin type B receptor (Homo sapiens)
Sequence (P32239 whole entry): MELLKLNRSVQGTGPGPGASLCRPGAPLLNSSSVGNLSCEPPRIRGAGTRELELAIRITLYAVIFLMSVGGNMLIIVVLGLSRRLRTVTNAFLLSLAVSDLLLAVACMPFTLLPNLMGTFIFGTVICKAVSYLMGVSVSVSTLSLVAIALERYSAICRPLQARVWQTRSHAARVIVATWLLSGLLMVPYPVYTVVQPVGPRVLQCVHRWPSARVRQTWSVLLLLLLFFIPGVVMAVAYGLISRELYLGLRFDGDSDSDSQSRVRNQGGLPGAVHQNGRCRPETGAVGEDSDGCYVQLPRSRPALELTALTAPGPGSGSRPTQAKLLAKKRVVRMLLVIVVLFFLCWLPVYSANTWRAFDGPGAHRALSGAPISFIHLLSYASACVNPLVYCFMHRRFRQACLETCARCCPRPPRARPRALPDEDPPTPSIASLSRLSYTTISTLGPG
# pIC50 annotations
Conceptually, pIC50 converts a concentration in mol/L into minus its log10.

// solved cases for pIC50 follow
COc1ccc(N(C(=O)CN2C(=O)C(Cc3n[nH]c4ccccc34)C(=O)N(c3ccccc3)c3ccccc32)C2CCCC2)cc1 (configuration not stated) : 6.11
COc1ccc(N(C(=O)CN2C(=O)C(Cc3n[nH]c4c(F)cccc34)C(=O)N(c3ccccc3)c3ccccc32)C(C)C)cc1 (configuration not stated) : 5.98
CC(C)N(C(=O)CN1C(=O)C(Cc2n[nH]c3ccccc23)C(=O)N(c2ccccc2)c2ccccc21)c1ccc2c(c1)OCO2 (configuration not stated) : 6.14
COc1cccc(N(C(=O)CN2C(=O)C(Cc3n[nH]c4ccccc34)C(=O)N(c3ccccc3)c3ccccc32)C(C)C)c1 (configuration not stated) : 6.72
O=C1C(Cc2n[nH]c3ccccc23)C(=O)N(c2ccccc2)c2ccccc2N1CC(=O)N(c1ccccc1)C1CC1 (configuration not stated) : 7.60

Q: Test system Gastrin/cholecystokinin type B receptor (Homo sapiens); read-out pIC50; what value for CC(C)N(C(=O)CN1C(=O)C(Cc2n[nH]c3ccccc23)C(=O)N(c2ccccc2)c2ccccc21)c1ccc(F)cc1 (configuration not stated) ?
Result: 6.32

Q: Look up pIC50 with Gastrin/cholecystokinin type B receptor (Homo sapiens) for this molecule: COc1ccc(N(C(=O)CN2C(=O)C(Cc3n[nH]c4ccc(F)cc34)C(=O)N(c3ccccc3)c3ccccc32)C(C)C)cc1 (configuration not stated)
Result: 5.60
